Test: GC-head space: effect of enablers on the encapsulation of menthol and limonene combination by PVP
Assay type: physicochemical
Conditions: menthol + limonene with PVP; enabler 0.5%
propertyMeasured: GC-HS area Limonene

molecule="Cc1cc(C(C)(C)C)c(O)c(C(C)(C)C)c1 [BHT, Butylated hydroxy toluene]" propertymeasured="GC-HS area Limonene" quantitativeresult=2020945
molecule=CC(=O)O propertymeasured="GC-HS area Limonene" quantitativeresult=2053175
molecule=CC(C)=O propertymeasured="GC-HS area Limonene" quantitativeresult=2004605
molecule=Oc1cc(Cl)ccc1Oc1ccc(Cl)cc1Cl propertymeasured="GC-HS area Limonene" quantitativeresult=2027488

* * *

Assay: GC-head space: effect of enablers on the encapsulation of menthol by PVP
Assay type: physicochemical
Conditions: menthol; enabler 0.05%; control without PVP
propertyMeasured: GC-HS area (% of control sample)

compound=CC(C)=O result="0.72 % of control sample"
compound=CC(=O)O result="0.94 % of control sample"
compound="Cc1cc(C(C)(C)C)c(O)c(C(C)(C)C)c1 [BHT, Butylated hydroxy toluene]" result="14.14 % of control sample"
compound=Oc1cc(Cl)ccc1Oc1ccc(Cl)cc1Cl result="6.63 % of control sample"

* * *

GC-HS area Menthol reference
Test: GC-head space: effect of enablers on the encapsulation of menthol and limonene combination by PVP
Assay type: physicochemical
Details: menthol + limonene with PVP; enabler 0.5%
propertyMeasured: GC-HS area Menthol

compound=Oc1cc(Cl)ccc1Oc1ccc(Cl)cc1Cl quantitativeresult=841
compound=CC(=O)O quantitativeresult=399
compound="Cc1cc(C(C)(C)C)c(O)c(C(C)(C)C)c1 [BHT, Butylated hydroxy toluene]" quantitativeresult=12330
compound=CC(C)=O quantitativeresult=891

Recorded values, source patent US12685983B2.
